biological target: recombinant human CK2 (Homo sapiens (Human), UniProt P68400); test: CK2 assay (cell-free, 33P-ATP filter plate); format: biochemical; settings: 20 um ATP, cell-free; read-out: CK2 (20 um ATP) IC50
Sequence (P68400 whole entry): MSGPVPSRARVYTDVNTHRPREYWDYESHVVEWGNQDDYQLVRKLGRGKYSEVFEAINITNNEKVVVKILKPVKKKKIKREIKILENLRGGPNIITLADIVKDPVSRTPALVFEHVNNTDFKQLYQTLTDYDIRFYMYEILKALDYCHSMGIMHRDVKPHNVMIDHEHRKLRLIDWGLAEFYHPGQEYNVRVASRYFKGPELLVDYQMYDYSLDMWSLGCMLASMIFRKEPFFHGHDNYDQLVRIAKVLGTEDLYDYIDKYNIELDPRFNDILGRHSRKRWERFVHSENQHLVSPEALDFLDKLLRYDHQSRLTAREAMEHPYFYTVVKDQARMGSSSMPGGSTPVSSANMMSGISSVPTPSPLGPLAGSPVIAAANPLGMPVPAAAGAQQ
Sequence (P67870 whole entry partner): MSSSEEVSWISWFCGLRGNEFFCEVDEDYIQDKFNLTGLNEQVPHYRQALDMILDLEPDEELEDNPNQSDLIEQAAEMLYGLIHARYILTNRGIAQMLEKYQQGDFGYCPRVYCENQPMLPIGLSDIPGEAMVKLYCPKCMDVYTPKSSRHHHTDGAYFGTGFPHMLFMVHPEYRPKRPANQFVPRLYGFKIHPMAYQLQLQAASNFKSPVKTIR
ASSAY METRIC: pIC50
One number for each entry, as −log10 of the molar value.

Challenge: Missing value: pIC50, recombinant human CK2 (Homo sapiens (Human), UniProt P68400), entry FC(F)(F)c1cccc(Nc2nc3cc(-c4nnn[nH]4)ccc3c3sccc23)c1 . Fill in?
Response given: 6.39

====

target: recombinant human PIM1 (Homo sapiens (Human)); test: PIM-1 kinase activity in cell-free in vitro assay; type: biochemical; conditions: cell-free
Sequence (P11309 whole entry): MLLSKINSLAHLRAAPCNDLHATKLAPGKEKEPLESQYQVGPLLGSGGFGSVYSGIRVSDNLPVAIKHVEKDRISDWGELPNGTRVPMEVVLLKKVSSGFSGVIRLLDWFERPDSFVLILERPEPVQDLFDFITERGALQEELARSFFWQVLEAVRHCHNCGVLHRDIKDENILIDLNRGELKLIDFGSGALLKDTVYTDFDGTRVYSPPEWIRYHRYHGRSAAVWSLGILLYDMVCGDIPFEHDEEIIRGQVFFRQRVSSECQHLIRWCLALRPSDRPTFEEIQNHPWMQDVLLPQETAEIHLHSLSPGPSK
Quick rule for you: IC50 under 0.4 µM gets Condition met, anything else gets Condition not met.

Sample answers from the record:
Challenge: Could you please tell me whether IC50 recorded for OCc1cccc(Nc2nc3cc(-c4nnn[nH]4)ccc3c3sccc23)c1 is less than 0.4 µM?
Response given: Condition met

Challenge: Could you please tell me whether IC50 recorded for COc1cccc(Nc2nc3cc(C(=O)O)ccc3c3cnccc23)c1 is less than 0.4 µM?
Response given: Condition met

Challenge: Could you please tell me whether IC50 recorded for C#Cc1cccc(Nc2nc3cc(C(=O)O)ccc3c3cncnc23)c1 [drawing 1544] is less than 0.4 µM?
Response given: Condition met

Others:
Challenge: Could you please tell me whether IC50 recorded for O=C(O)c1ccc2c(c1)nc(Nc1ccccc1)c1ccncc12 is less than 0.4 µM?
Response given: Condition not met

Challenge: Could you please tell me whether IC50 recorded for CCc1cccc(Nc2nc3cc(-c4nnn[nH]4)ccc3c3sccc23)c1 is less than 0.4 µM?
Response given: Condition not met

Challenge: Could you please tell me whether IC50 recorded for CN(C)CCNc1nc2cc(-c3nnn[nH]3)ccc2c2sccc12 is less than 0.4 µM?
Response given: Condition met
